This collection of values is drawn from paper PMC8989545.

Molecular target: EpCAM (on HCT116 cells)
Sequence: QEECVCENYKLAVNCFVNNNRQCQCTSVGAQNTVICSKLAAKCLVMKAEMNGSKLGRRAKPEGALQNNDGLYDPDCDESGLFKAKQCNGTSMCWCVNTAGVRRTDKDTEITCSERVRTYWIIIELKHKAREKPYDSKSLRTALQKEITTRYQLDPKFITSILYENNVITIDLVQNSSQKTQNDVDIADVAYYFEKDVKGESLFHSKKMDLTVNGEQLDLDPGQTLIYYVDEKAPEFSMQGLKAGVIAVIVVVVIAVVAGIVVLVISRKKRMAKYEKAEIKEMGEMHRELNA
Test: flow cytometry on HCT116 cells
Conditions: live cells, EpCAM inferred, N = artificial base F, HSA beads: DPBS + 5 mM Mg2+, room temperature, 1 h, beads blocked with BSA/yeast tRNA, 4.5 g/L glucose, 5 mM MgCl2, 0.1 mg/ml yeast tRNA, 1 mg/ml …
MEASUREMENT_TYPE: Kd (µM)
Give the number; µM is assumed, so skip it.

Lookup result for NNCACTACAGAGGTTGCGTCTGTCCCACGTTGTCATGGGGGGTTGGCCTGNN [SYL3C-F20] ; measured Kd: 0.369

* * *

Molecular target: human serum albumin (HSA) (Homo sapiens)
Test: flow cytometry
Conditions: N = artificial base F; HSA beads: DPBS + 5 mM Mg2+, room temperature, 1 h, beads blocked with BSA/yeast tRNA; cells: DPBS, 4.5 g/L glucose, 5 mM MgCl2, 0.1 mg/ml yeast tRNA, 1 mg/ml …
MEASUREMENT_TYPE: pKd
Note: pKd values are expressed as the negative base-10 logarithm of concentration in M.

Lookup result for NNCACTACAGAGGTTGCGTCTGTCCCACGTTGTCATGGGGGGTTGGCCTGNN [SYL3C-F20] ; measured pKd: 5.96

* * *

Biological target: EpCAM (on HCT116 cells) (UniProt P16422)
Sequence: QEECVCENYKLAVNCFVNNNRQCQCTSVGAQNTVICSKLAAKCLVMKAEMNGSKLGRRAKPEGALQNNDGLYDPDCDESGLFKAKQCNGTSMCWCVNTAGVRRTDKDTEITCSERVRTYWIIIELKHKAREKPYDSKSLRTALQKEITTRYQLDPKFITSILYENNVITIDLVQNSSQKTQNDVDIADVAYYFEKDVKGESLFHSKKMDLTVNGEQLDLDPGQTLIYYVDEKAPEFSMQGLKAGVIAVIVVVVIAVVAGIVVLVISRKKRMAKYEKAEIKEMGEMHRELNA
Experiment: flow cytometry on HCT116 cells
Conditions: live cells, EpCAM inferred, HSA beads: DPBS + 5 mM Mg2+, room temperature, 1 h, beads blocked with BSA/yeast tRNA, 4.5 g/L glucose, 5 mM MgCl2, 0.1 mg/ml yeast tRNA, 1 mg/ml …
MEASUREMENT_TYPE: pKd
Note: pKd values are expressed as the negative base-10 logarithm of concentration in M.

Lookup result for CACTACAGAGGTTGCGTCTGTCCCACGTTGTCATGGGGGGTTGGCCTG [SYL3C] ; measured pKd: 6.49

* * *

Target: PTK7 (on HCT116 cells)
Sequence: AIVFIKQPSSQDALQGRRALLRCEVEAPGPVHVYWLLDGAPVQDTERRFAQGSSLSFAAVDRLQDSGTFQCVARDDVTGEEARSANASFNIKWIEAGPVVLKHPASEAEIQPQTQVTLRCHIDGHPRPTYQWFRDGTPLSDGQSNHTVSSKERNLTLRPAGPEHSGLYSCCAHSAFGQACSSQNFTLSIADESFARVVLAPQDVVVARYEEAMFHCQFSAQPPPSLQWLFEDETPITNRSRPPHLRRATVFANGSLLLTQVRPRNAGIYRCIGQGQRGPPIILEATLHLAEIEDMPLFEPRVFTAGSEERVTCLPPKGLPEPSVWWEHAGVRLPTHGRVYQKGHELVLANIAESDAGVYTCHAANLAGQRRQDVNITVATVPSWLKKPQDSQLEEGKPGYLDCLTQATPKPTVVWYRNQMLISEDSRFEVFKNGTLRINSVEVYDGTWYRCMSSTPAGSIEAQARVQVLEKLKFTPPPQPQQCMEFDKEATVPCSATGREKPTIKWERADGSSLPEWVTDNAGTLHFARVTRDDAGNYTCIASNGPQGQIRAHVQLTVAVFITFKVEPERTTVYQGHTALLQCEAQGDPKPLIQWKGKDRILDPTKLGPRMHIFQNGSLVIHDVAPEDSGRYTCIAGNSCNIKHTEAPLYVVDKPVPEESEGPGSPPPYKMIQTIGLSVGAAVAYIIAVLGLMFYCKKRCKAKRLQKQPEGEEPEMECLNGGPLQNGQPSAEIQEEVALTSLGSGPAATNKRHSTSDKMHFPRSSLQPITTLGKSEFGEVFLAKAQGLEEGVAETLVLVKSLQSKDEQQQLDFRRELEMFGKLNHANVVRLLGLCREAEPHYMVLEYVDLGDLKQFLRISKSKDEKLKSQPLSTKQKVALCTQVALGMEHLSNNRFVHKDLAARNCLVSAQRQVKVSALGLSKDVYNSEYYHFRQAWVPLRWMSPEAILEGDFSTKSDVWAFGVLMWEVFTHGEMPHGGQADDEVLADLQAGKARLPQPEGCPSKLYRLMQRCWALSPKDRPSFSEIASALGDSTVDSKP
Assay: flow cytometry on HCT116 cells
Details: live cells, PTK7 inferred, HSA beads: DPBS + 5 mM Mg2+, room temperature, 1 h, beads blocked with BSA/yeast tRNA, 4.5 g/L glucose, 5 mM MgCl2, 0.1 mg/ml yeast tRNA, 1 mg/ml …
MEASUREMENT_TYPE: Kd (nM)
Give the number; nM is assumed, so skip it.

Lookup result for ATCTAACTGCTGCGCCGCCGGGAAAATACTGTACGGTTAGA [Sgc8] ; measured Kd: 3.2
